Target Or Test System: Cannabinoid receptor 2 (Homo sapiens, UniProt P34972, V36M)
Sequence (P34972 whole entry V36M): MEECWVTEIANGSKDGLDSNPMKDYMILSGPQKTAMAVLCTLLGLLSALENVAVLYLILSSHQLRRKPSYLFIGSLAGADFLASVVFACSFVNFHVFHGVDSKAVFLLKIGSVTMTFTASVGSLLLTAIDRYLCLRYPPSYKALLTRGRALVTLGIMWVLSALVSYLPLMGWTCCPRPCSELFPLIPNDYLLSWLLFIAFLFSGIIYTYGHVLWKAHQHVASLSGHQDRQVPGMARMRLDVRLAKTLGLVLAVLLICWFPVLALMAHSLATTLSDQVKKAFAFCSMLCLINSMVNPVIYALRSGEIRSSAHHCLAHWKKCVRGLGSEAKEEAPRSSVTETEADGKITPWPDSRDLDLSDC
Test Protocol: Partial agonist activity at CBR2 V361.35M mutant (unknown origin) expressed in HEK293T assessed as increase in ERK1/2 phosphorylation incubated for 7 mins by AlphaScreenSureFire method
Assay type: functional, cell-based
Recorded Metric: pEC50
Please report pEC50 as the negative decimal logarithm of the molar concentration, giving only the number.

Qu. Reported pEC50, compound "CCCC(C)(C)c1cc(O)c2c(c1)OC(C)(C)[C@@H]1CC=C(C)C[C@@H]21" : ____
Ans. 7.50

* * *

Target Or Test System: Cannabinoid receptor 2 (Homo sapiens, UniProt P34972, A282M)
Sequence (P34972 whole entry A282M): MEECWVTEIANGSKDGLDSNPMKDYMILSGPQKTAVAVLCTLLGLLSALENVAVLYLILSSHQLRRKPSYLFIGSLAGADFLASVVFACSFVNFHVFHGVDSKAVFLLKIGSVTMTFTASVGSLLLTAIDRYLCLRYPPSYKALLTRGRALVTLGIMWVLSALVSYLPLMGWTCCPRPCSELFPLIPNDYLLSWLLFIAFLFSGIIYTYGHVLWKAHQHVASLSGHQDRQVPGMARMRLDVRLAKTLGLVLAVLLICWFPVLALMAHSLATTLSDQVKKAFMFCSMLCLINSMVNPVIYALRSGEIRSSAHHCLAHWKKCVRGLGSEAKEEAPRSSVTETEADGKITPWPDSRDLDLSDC
Test Protocol: Partial agonist activity at CBR2 A2827.36M mutant (unknown origin) stably expressed in HEK293T assessed as decrease in forskolin induced cAMP level preincubated for 15 mins followed by forskolin addition incubated for 15 mins in presence of cannabidiol by HTRF assay
Format: functional, cell-based
Recorded Metric: pEC50
Please report pEC50 as the negative decimal logarithm of the molar concentration, giving only the number.

Qu. Reported pEC50, compound "CCCC(C)(C)c1cc(O)c2c(c1)OC(C)(C)[C@@H]1CC=C(C)C[C@@H]21" : ____
Ans. 8.10
